system: leukemia RPMI-8226; experiment: MTT antiproliferative assay; conditions: read-out: Cytotoxicity IC50 RPMI-8226; MTT; mean ± SD
MEASUREMENT_TYPE: pIC50
Give bare numbers, as −log10 of the molar value.

Respond only with pIC50 recorded for `COC(=O)C=C1SC(=Nc2cccnc2)N(NC(=O)c2cc3ccc2CCc2ccc(cc2)CC3)C1=O`
5.00

* * *

Would you kindly list inhibition at 10 µM for each of these molecules?
System: BT-549
Experiment: NCI single-dose screen (SRB)
Assay type: cell-based
Details: Homo sapiens; Breast Cancer BT-549; 10^−5 M; read-out: Growth inhibition percentage
Method: The methodology of the NCI anticancer screening was described in detail elsewhere (http://www.dtp.nci.nih.gov). […] Tested compounds were added to the culture at a single concentration (10^−5 M) and the cultures were incubated for 48 h. End-point determinations were made with a protein binding dye, SRB. […] The percentage growth was evaluated spectrophotometrically versus controls not treated with test agents. […]
One number for each entry, in %.

Reference set, count: 5
SMILES_DATA	TARGET_UNDER_TEST	REPORTED_RESULT
COC(=O)C=C1SC(=NNC(=O)c2cc3ccc2CCc2ccc(cc2)CC3)N(c2ccccc2)C1=O	BT-549	64.5
COC(=O)/C=C1/S/C(=N/NC(=O)c2cc3ccc2CCc2ccc(cc2)CC3)N(C2CC2)C1=O	BT-549	26.8
COC(=O)C=C1SC(=NNC(=O)c2cc3ccc2CCc2ccc(cc2)CC3)N(Cc2ccccc2)C1=O	BT-549	89.7
COC(=O)C=C1SC(=Nc2cccnc2)N(NC(=O)c2cc3ccc2CCc2ccc(cc2)CC3)C1=O	BT-549	18.4
CCN1C(=O)C(=CC(=O)OC)SC1=NNC(=O)c1cc2ccc1CCc1ccc(cc1)CC2	BT-549	7.73

Indicate its recorded inhibition at 10 µM; the molecule in question is `C=CCN1C(=O)C(=CC(=O)OC)SC1=NNC(=O)c1cc2ccc1CCc1ccc(cc1)CC2`
38.3

Provenance of the data: paper PMC7411887
